# tgt: human Nav1.7 (Homo sapiens, UniProt Q15858)
# Construct: expressed in transfected cells
# Sequence (Q15858 whole entry): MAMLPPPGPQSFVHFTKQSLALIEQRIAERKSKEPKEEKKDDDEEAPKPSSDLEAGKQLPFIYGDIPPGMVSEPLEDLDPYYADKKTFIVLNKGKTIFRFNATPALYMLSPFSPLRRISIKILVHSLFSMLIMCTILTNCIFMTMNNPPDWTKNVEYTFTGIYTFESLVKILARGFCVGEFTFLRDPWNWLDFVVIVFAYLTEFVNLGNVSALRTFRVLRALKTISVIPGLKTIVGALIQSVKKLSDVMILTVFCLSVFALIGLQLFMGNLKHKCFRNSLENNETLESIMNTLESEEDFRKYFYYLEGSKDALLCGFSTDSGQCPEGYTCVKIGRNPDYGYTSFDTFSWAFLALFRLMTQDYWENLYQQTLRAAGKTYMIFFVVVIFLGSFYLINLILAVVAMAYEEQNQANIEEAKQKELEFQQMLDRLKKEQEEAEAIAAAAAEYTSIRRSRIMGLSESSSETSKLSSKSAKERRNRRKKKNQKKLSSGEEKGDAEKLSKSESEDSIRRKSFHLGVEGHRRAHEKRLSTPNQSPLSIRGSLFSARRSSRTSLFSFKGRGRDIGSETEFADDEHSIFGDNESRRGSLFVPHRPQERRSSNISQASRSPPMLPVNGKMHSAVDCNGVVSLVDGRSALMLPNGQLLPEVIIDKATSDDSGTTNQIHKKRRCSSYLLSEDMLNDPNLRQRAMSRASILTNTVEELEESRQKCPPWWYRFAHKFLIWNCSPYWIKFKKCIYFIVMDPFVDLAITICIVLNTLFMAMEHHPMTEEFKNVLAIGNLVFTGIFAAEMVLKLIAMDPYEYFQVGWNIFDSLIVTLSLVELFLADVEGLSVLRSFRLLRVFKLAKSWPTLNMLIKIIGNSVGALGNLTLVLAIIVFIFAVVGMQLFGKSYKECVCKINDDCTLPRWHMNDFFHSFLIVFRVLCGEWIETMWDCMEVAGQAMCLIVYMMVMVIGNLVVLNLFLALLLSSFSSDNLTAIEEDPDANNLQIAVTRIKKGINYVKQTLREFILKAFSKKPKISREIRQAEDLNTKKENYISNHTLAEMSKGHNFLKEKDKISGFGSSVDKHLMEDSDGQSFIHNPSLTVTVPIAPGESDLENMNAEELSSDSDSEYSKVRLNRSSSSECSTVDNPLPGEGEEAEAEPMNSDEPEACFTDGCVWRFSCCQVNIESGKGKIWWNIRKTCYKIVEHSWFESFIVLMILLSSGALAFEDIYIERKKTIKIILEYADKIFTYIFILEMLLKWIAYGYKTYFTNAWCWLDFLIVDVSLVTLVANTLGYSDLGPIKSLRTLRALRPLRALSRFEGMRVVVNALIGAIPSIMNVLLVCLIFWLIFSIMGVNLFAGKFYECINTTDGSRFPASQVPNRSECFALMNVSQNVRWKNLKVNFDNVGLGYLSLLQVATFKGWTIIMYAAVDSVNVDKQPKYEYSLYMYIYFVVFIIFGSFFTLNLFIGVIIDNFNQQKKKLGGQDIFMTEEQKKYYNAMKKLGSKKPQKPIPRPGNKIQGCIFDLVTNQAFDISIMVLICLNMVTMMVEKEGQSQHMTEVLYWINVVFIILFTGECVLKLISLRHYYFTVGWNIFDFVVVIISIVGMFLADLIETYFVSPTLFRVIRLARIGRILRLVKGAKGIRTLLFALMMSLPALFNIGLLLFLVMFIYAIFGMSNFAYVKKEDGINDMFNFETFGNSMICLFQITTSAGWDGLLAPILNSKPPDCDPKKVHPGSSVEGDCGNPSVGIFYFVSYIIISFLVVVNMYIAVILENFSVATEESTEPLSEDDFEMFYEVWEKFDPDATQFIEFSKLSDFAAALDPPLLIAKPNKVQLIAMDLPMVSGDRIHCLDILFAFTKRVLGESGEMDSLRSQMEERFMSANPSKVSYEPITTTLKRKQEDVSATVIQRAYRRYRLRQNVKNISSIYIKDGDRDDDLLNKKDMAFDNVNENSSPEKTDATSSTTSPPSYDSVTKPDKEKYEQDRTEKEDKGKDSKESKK
# Sequence (Q07699 19-218 partner): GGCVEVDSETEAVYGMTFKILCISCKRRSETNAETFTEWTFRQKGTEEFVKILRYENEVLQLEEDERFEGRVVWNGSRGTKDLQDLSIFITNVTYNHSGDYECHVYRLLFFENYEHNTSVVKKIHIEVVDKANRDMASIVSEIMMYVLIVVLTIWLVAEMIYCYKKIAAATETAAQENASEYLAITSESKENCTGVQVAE
# protocol: Assessment of Nav1.7 activity on PatchXpress (voltage dependence / slow inactivation parameters)
# Type: cell-based
# testContext: compound at 10 μM; relative to 0.2% DMSO vehicle control
assayMetric: hNav1.7: Voltage dependence of fast inactivation (mV) VDEP
Numbers only, in mV.

Recorded results for 2 compounds are shown here.
Cc1cccc(C)c1OCC(C)NC(=O)[C@H](N)CC(C)C (stereo partly drawn) ... −8.20
O=C1CNCCN1Cc1nc2cc(Br)ccc2[nH]1 ... −6.4

Item under review: CC(C)C[C@H](N)CC(=O)NCCOc1cc(F)cc(C(F)(F)F)c1 . Reported hNav1.7: Voltage dependence of fast inactivation (mV) VDEP? −3.90

====

# tgt: human Nav1.7 (Homo sapiens)
# Construct: expressed in transfected cells
# protocol: Assessment of Nav1.7 activity on PatchXpress (voltage dependence / slow inactivation parameters)
# Type: cell-based
# testContext: compound at 10 μM; before/after 30 sec conditioning pulse at 20 mV; relative to 0.2% DMSO vehicle control
assayMetric: hNav1.7: Reduction in current at 20 mV (normalized data) Delta Ratio

Recorded results for 3 molecules are shown here.
O[C@@H]1CN[C@H](c2nc3cc(C(F)(F)F)cc(C(F)(F)F)c3[nH]2)C1 ... 0.03
CC(C)(CN1CCNCC1=O)c1nc2cc(F)cc(F)c2[nH]1 ... −0.08
NC1CCN(C(=O)Cc2nc3cc(C(F)(F)F)cc(C(F)(F)F)c3[nH]2)CC1 ... 0.01

// next item, hNav1.7: Reduction in current at 20 mV (normalized data) Delta Ratio requested
Item under review: CC(C)(CC(=O)N1CCNCC1)c1nc2cc(F)cc(F)c2[nH]1 . Reported hNav1.7: Reduction in current at 20 mV (normalized data) Delta Ratio? −0.13

====

# tgt: human Nav1.7 (Homo sapiens, UniProt Q15858)
# Construct: expressed in transfected cells
# protocol: Assessment of Nav1.7 activity on PatchXpress (voltage dependence / slow inactivation parameters)
# Assay type: cell-based
# testContext: compound at 10 μM; relative to 0.2% DMSO vehicle control
assayMetric: hNav1.7: Voltage dependence of activation (mV) VDEP
Give bare numbers, in mV.

CC[C@@H](C)[C@@H](N)C(=O)NCCOc1cc(F)cc(C(F)(F)F)c1 [Compound 19] ... −8.00
N[C@H]1CCCC[C@H]1C(=O)NCCOc1cc(C(F)(F)F)cc(C(F)(F)F)c1 [Compound 8] ... −7.80
O=C(NCCOc1cc(F)cc(C(F)(F)F)c1)[C@@H]1CCCN1 [Compound 22] ... −6.50
N[C@H](C(=O)NCCOc1cc(C(F)(F)F)cc(C(F)(F)F)c1)c1ccccc1 [Compound 9] ... −8.10
C[C@@H](NC(=O)[C@H]1CCCN1)c1ccc(OCC(F)(F)F)cn1 [Compound 83] ... −3.1
CC(C)(C)OC(=O)N[C@H](Cc1cccc(C(F)(F)F)c1)C(=O)NCc1nc2c(C(F)(F)F)cc(C(F)(F)F)cc2[nH]1 [Compound 73] ... −12.5

Hi there! I need hNav1.7: Voltage dependence of activation (mV) VDEP for each item below, if you can.
1. CN(Cc1nc2c(C(F)(F)F)cc(C(F)(F)F)cc2[nH]1)C(=O)CNC(C)(C)C [Compound 77]
2. N[C@H](Cc1cccc(C(F)(F)F)c1)C(=O)NCc1nc2ccc(Br)cc2[nH]1 [Compound 74]
3. O=C1CNCCN1Cc1nc2cc(Br)ccc2[nH]1 [Compound 63]
4. NC1CCN(C(=O)Cc2nc3cc(C(F)(F)F)cc(C(F)(F)F)c3[nH]2)CC1 [Compound 90]
5. O=C(NCCOc1cc(C(F)(F)F)cc(C(F)(F)F)c1)[C@H]1CCCN1 [Compound 11]
6. N[C@H](Cc1cccc(C(F)(F)F)c1)C(=O)NCc1nc2c(C(F)(F)F)cc(C(F)(F)F)cc2[nH]1 [Compound 75]
7. Cc1cccc(C)c1OCC(C)NC(=O)[C@H](N)CC(C)C (stereo partly drawn) [Compound 2]

1. −2.2
2. −3.7
3. −8.1
4. −2.9
5. −5.00
6. −15.4
7. −10.00

Hi there! I need hNav1.7: Voltage dependence of activation (mV) VDEP for each item below, if you can.
1. NC1(c2nc3cc(C(F)(F)F)cc(C(F)(F)F)c3[nH]2)Cc2ccccc2C1 [Compound 52]
2. NC[C@@H]1Nc2c(cc(C(F)(F)F)cc2C(F)(F)F)NC1=O [Compound 40]

["−7.2", "−6.60"]
